pIC50: −log10 of the molar value.
Here's a batch of compounds along with measured pIC50 for Chymotrypsinogen B (Homo sapiens, UniProt P17538).

For this compound ( C[C@@H](NC(=O)N1C(=O)CC1SCC(=O)c1ccccc1)c1ccccc1 (stereo partly specified) ), measured pIC50 is < 4.12

For this compound ( C[C@@H](NC(=O)N1C(=O)CC1SCc1cccnc1)c1ccccc1 (stereo partly specified) ), measured pIC50 is < 4.12

For this compound ( C[C@@H](NC(=O)N1C(=O)CC1SCc1ccccn1)c1ccccc1 (stereo partly specified) ), measured pIC50 is < 4.12

For this compound ( C[C@@H](NC(=O)N1C(=O)CC1SCc1ccc(CC(=O)OC(C)(C)C)cc1)c1ccccc1 (stereo partly specified) ), measured pIC50 is < 4.12

For this compound ( CC(C)C[C@@H](COC1CC(=O)N1C(=O)N[C@@H](C)c1ccccc1)NC(=O)[C@@H](NC(=O)OC(C)(C)C)C(C)(C)C (stereo partly specified) ), measured pIC50 is < 4.12

For this compound ( C[C@@H](NC(=O)N1C(=O)CC1SCc1ccccc1)c1ccccc1 (stereo partly specified) ), measured pIC50 is < 4.12

For this compound ( O=C1CC(SCc2ccccn2)N1C(=O)NCCOCc1ccccc1 (stereo unspecified) ), measured pIC50 is < 4.12

For this compound ( O=C1CC(SCc2ccccn2)N1C(=O)N[C@H](CO)c1ccccc1 (stereo partly specified) ), measured pIC50 is < 4.12

For this compound ( CC(C)C[C@@H](COC1CC(=O)N1C(=O)N[C@H](C)c1ccccc1)NC(=O)[C@@H](NC(=O)OC(C)(C)C)C(C)(C)C (stereo partly specified) ), measured pIC50 is < 4.12

For this compound ( CC(C)C[C@@H](COC1CC(=O)N1C(=O)NCc1ccccc1)NC(=O)[C@@H](NC(=O)OC(C)(C)C)C(C)(C)C (stereo partly specified) ), measured pIC50 is 5.08

For this compound ( CC[C@H](NC(=O)N1C(=O)CC1SC[C@H](CC(C)C)NC(=O)[C@@H](NC(=O)CC(C)(C)C)C(C)(C)C)c1ccccc1 (stereo partly specified) ), measured pIC50 is < 4.12
